Listing: relative activity (to native hormone) of selected binders
# study-system: T1, GIP receptor (UniProt P48546 22-466, limits assumed)
# T1 sequence (looked up): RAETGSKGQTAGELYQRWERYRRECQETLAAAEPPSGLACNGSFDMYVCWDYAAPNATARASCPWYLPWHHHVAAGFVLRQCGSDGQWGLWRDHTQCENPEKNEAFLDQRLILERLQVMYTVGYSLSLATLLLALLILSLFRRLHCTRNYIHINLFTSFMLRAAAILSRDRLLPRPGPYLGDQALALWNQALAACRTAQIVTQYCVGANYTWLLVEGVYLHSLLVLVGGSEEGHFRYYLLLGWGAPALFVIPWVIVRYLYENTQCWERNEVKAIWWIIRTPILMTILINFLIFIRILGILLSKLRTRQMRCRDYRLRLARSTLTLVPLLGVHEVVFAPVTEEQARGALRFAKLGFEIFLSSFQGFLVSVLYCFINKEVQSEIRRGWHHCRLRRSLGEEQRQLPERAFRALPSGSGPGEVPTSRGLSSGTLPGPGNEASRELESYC
# assay-overview: cell-based or functional assay
Where no end group is shown, it is not given here. [ ]: non-standard residue; d: D form. Aib = CC(C)(N)C(=O)O
The reply should be a number in %, with the unit left off.

Reference set, count: 3
Y[Aib]EGTFISDYSIAMDKIHQQDFVCWLLAQKGKKNWLKHNITQ-NH2 (not fully specified) [mt-220 (SEQ ID NO: 22)] : 0.19
Y[Aib]EGTFISDYSIAMDKIHQQDFVNWLLAQKGKKNWLKHNITQ-NH2 (not fully specified) [mt-217 (SEQ ID NO: 19)] : 0.2
Y[Aib]PGTFISDYSIAMDKIHQQDFVNWLLAQKGKKNWLKHNITQ-NH2 (not fully specified) [mt-219 (SEQ ID NO: 21)] : 0.31

We next turn to a different binder, shown below.
Lookup: Item under review: YXEGTFISDYSIAMDKIHQQDFVNWLLAQKGKKNWLKHNITQ (not fully specified; AIB at position 2; C-terminal amide; Glu16-Lys20 lactam in some Table 3 peptides, absent in others (which ones is not stated)) [mt-218 (SEQ ID NO: 20)] . Reported relative activity (to native hormone)?
Found: 0.13
